test system: Pancreatin; experiment: Protease stability in simulated intestinal fluid (Pancreatin-SIF, FaSSIF); assay type: in vitro ADME; conditions: 60 min, 1 μM peptide, 37° C., read-out: FaSSIF 60 (min), remaining percent of peptide
Starred links: 1 amine or outer side, 2 acyl side, 3 side chain; linkers in the order of their positions; H or OH if unused. Positions of bridges follow the written chain, without caps; N, C: chain ends. Non-standard residues stand in square brackets, D forms with d. Residues, ends and D or L forms follow the SMILES beside them. *: point of attachment. X5 = CN(C(=O)CCC(=O)[*:3])[C@@H](CS[*:2])C(=O)[*:1]; Trp(7-Me) = Cc1cccc2c(C[C@H](N)C(=O)O)c[nH]c12; 2Nal = N[C@@H](Cc1ccc2ccccc2c1)C(=O)O; NMe5Ava = CN(CCCCC(=O)[*:2])[*:1]; 3Pal = N[C@@H](Cc1cccnc1)C(=O)O; Lys(Me) = CNCCCC[C@H](N)C(=O)O; αMeL = CC(C)C[C@](C)(N)C(=O)O; Thp = NC1(C(=O)O)CCOCC1; Me2NCH2CH2 = CN(C)CC*; Ava = NCCCCC(=O)O; βAla = NCCC(=O)O; Sar = CNCC(=O)O
Readout label: remaining at 1 h, 1 µM (%)
Entry rule: numbers only, all in %.

A selection of reference data follows.
Cc1cccc2c(C[C@@H]3NC(=O)[C@H]([C@@H](C)O)NC(=O)[C@H](CC(N)=O)NC(=O)[C@@H]4CSSC[C@H](NC(=O)[C@H](CC(C)C)NC3=O)C(=O)N[C@@H](Cc3ccc(OCCN(C)C)cc3)C(=O)N[C@@H](Cc3ccc5ccccc5c3)C(=O)NC3(CCOCC3)C(=O)N[C@H](C(=O)N[C@@H](CC(N)=O)C(=O)N[C@@H](Cc3cccnc3)C(=O)N(C)CC(N)=O)CCC(=O)NCCCCC(=O)N4)c[nH]c12 [compound 24] ([Ava]CNT[Trp(7-Me)]LCY(Me2NCH2CH2)[2Nal][Thp]EN[3Pal][Sar]-NH2; disulfide 2-7; lactam N-11) : 80
CC(=O)NCCCC[C@@H]1NC(=O)[C@H](Cc2c[nH]c3c(C)cccc23)NC(=O)[C@H]([C@@H](C)O)NC(=O)[C@H](CC(N)=O)NC(=O)[C@@H]2CSSC[C@H](NC1=O)C(=O)N[C@@H](Cc1ccc(OCCN(C)C)cc1)C(=O)N[C@@H](Cc1ccc3ccccc3c1)C(=O)NC1(CCOCC1)C(=O)N[C@H](C(=O)N[C@@H](CC(N)=O)C(=O)N[C@@H](Cc1c[nH]cn1)C(=O)NCCC(N)=O)CCC(=O)NCCCCC(=O)N2 [compound 49] ([Ava]CNT[Trp(7-Me)]K(Ac)CY(Me2NCH2CH2)[2Nal][Thp]ENH[βAla]-NH2; disulfide 2-7; lactam N-11) : 85
CC(C)C[C@]1(C)NC(=O)[C@H](Cc2ccc3ccccc3c2)NC(=O)[C@H](Cc2ccc(OCCN(C)C)cc2)NC(=O)[C@@H]2CSSC[C@H](NC(=O)CCCCN(C)C(=O)CC[C@@H](C(=O)N[C@@H](CC(N)=O)C(=O)N[C@@H](CC(N)=O)C(N)=O)NC1=O)C(=O)N[C@@H](CC(N)=O)C(=O)N[C@@H]([C@@H](C)O)C(=O)N[C@@H](Cc1c[nH]c3ccccc13)C(=O)N[C@@H](CCC(N)=O)C(=O)N2 [compound 41] ([NMe5Ava]CNTWQCY(Me2NCH2CH2)[2Nal][αMeL]ENN-NH2; disulfide 2-7; lactam N-11) : 83

Next up:
Request: Given the entry CC(=O)NCCCC[C@@H]1NC(=O)[C@H](Cc2c[nH]c3c(C)cccc23)NC(=O)[C@@H](NC(C)=O)CCCCNC(=O)[C@@H]2CSSC[C@H](NC1=O)C(=O)N[C@@H](Cc1ccc(OCCN(C)C)cc1)C(=O)N[C@@H](Cc1ccc3ccccc3c1)C(=O)NC1(CCOCC1)C(=O)N[C@H](C(=O)N[C@@H](CC(N)=O)C(=O)N[C@@H](Cc1cccnc1)C(=O)N(C)CC(N)=O)CCCCN(C)C(=O)CCC(=O)N2C [compound 74] (Ac-K[Trp(7-Me)]K(Ac)CY(Me2NCH2CH2)[2Nal][Thp][Lys(Me)]N[3Pal][Sar]-NH2; linker 1-4-8 via X5) , report its measured remaining at 1 h, 1 µM.
Result: 87
